- Test system: ADP and collagen induced platelet aggregation
- testMethodNotes: Platelet aggregation in lumiaggregometer (ADP or collagen)
- Format: cell-based, human
- conditionSummary: Homo sapiens, Platelet, agonist 5 μM ADP, lumiaggregometer
- Description: The effects of thio-CHCl-AP4 A and the reference agent on both ADP and collagen induced platelet aggregation, and release reaction were tested in a lumiaggregometer. Normal human PRP was separated from sodium […] anticoagulated (0.38%) blood. Platelet aggregation and release reaction induced by 5 μM ADP or 1 μg collagen/ml. […] The luminescence produced by the luciferin-luciferase reaction was linear with respect to the amount of ATP released.
observable: IC50 (µM)
Write the number in µM without appending the unit.

compound | measureUnit | IC50
Nc1ncnc2c1ncn2[C@@H]1O[C@H](COP(O)(=S)OP(=O)(O)C(Cl)P(=O)(O)OP(O)(=S)OC[C@H]2O[C@@H](n3cnc4c(N)ncnc43)[C@H](O)[C@@H]2O)[C@@H](O)[C@H]1O (some centres unmarked) [Thio-CHCl-AP4 A] | µM | 1.6

Lab note: next compound to report on.
Consider Nc1ncnc2c1ncn2[C@@H]1O[C@H](COP(=O)(O)OP(=O)(O)C(Cl)P(=O)(O)OP(=O)(O)OC[C@H]2O[C@@H](n3cnc4c(N)ncnc43)[C@H](O)[C@@H]2O)[C@@H](O)[C@H]1O (some centres unmarked) [CHCl-AP4 A] . Its measured IC50 is 14

---

- Tested on: ADP-induced platelet aggregation
- testMethodNotes: ADP-induced platelet aggregation in platelet-rich plasma (turbidimetric method of Born, aggregometer)
- Type: cell-based, human
- conditionSummary: ADP-induced aggregation, PRP; mean of three (*) or two determinations; read-out: IC50
observable: IC50

Consider Nc1ncnc2c1ncn2[C@H]1C[C@H](O)[C@@H](COP(=O)(O)OP(=O)(O)C(Cl)P(=O)(O)OP(=O)(O)OC[C@H]2O[C@@H](n3cnc4c(N)ncnc43)C[C@@H]2O)O1 (stereo partly shown) [CHCl-dAP4 dA] . Its measured IC50 is > 100 µM

---

- testMethodNotes: Molecular stability in whole blood (HPLC of blood extracts)
- Type: in vitro ADME, human
- conditionSummary: human, blood; time 0; read-out: Extraction efficiency
observable: recovery at 0 h, 250 µM (%)
Write the number in % without appending the unit.

Consider Nc1ncnc2c1ncn2[C@@H]1O[C@H](COP(O)(=S)OP(=O)(O)C(Cl)P(=O)(O)OP(O)(=S)OC[C@H]2O[C@@H](n3cnc4c(N)ncnc43)[C@H](O)[C@@H]2O)[C@@H](O)[C@H]1O (stereo partly shown) [Thio-CHCl-AP4 A] . Its measured recovery at 0 h, 250 µM is 69

---

- testMethodNotes: Molecular stability in whole blood (HPLC of blood extracts)
- Format: in vitro ADME, human
- conditionSummary: human, blood; 60 minutes; read-out: Total extraction efficiency
observable: recovery at 1 h, 250 µM (%)
Write the number in % without appending the unit.

Consider Nc1ncnc2c1ncn2[C@@H]1O[C@H](COP(=O)(O)OP(=O)(O)C(Cl)P(=O)(O)OP(=O)(O)OC[C@H]2O[C@@H](n3cnc4c(N)ncnc43)[C@H](O)[C@@H]2O)[C@@H](O)[C@H]1O (stereo partly shown) [CHCl-AP4 A] . Its measured recovery at 1 h, 250 µM is 110

---

- Tested on: platelet aggregation
- testMethodNotes: Platelet aggregation induced by ADP and agonists other than ADP
- Type: cell-based, human
- conditionSummary: Homo sapiens, Platelet, agonist Collagen (μg)
observable: pIC50
// scale note: pIC50 = -log10(conc_M); give the bare number

Consider Nc1ncnc2c1ncn2[C@@H]1O[C@H](COP(O)(=S)OP(=O)(O)C(Cl)P(=O)(O)OP(O)(=S)OC[C@H]2O[C@@H](n3cnc4c(N)ncnc43)[C@H](O)[C@@H]2O)[C@@H](O)[C@H]1O (some centres unmarked) [Thio-CHCl-AP4 A] . Its measured pIC50 is 5.05

---

- Test system: Platelet release reaction
- testMethodNotes: Platelet release reaction (ATP, luciferin-luciferase, lumiaggregometer)
- Type: cell-based, human
- conditionSummary: Homo sapiens, Platelet, agonist 5 μM ADP, lumiaggregometer
Overview of recorded pIC50 for various molecules
// scale note: pIC50 = -log10(conc_M); give the bare number

molecule | pIC50
Nc1ncnc2c1ncn2[C@@H]1O[C@H](COP(=O)(O)OP(=O)(O)C(Cl)P(=O)(O)OP(=O)(O)OC[C@H]2O[C@@H](n3cnc4c(N)ncnc43)[C@H](O)[C@@H]2O)[C@@H](O)[C@H]1O (some centres unmarked) [CHCl-AP4 A] | 5.35

Consider Nc1ncnc2c1ncn2[C@@H]1O[C@H](COP(O)(=S)OP(=O)(O)C(Cl)P(=O)(O)OP(O)(=S)OC[C@H]2O[C@@H](n3cnc4c(N)ncnc43)[C@H](O)[C@@H]2O)[C@@H](O)[C@H]1O (some centres unmarked) [Thio-CHCl-AP4 A] . Its measured pIC50 is 6.15

---

Overview of recorded IC50 for various molecules
- System: Platelet release reaction
- testMethodNotes: Platelet release reaction (ATP, luciferin-luciferase, lumiaggregometer)
- Assay type: cell-based, human
- conditionSummary: Homo sapiens, Platelet, agonist collagen 1 μg/ml, lumiaggregometer
Write the number in µM without appending the unit.

molecule | assayedSystem | measureUnit | IC50
Nc1ncnc2c1ncn2[C@@H]1O[C@H](COP(=O)(O)OP(=O)(O)C(Cl)P(=O)(O)OP(=O)(O)OC[C@H]2O[C@@H](n3cnc4c(N)ncnc43)[C@H](O)[C@@H]2O)[C@@H](O)[C@H]1O (some centres unmarked) [CHCl-AP4 A] | Platelet release reaction | µM | 35

Lab note: next molecule to report on.
Consider Nc1ncnc2c1ncn2[C@@H]1O[C@H](COP(O)(=S)OP(=O)(O)C(Cl)P(=O)(O)OP(O)(=S)OC[C@H]2O[C@@H](n3cnc4c(N)ncnc43)[C@H](O)[C@@H]2O)[C@@H](O)[C@H]1O (some centres unmarked) [Thio-CHCl-AP4 A] . Its measured IC50 is 1.7
